Assay: Efflux ratio of apparent permeability across basolateral to apical side over apical to basolateral side in human Caco2 cells at 2 uM incubated for 2 hrs by LC-MS/MS analysis
Settings: Caco-2
recordedMetric: efflux ratio at 2 h, 2 µM

Which efflux ratio at 2 h, 2 µM value is on record for c1ccc2oc(-c3csc(C4CCN(Cc5nc6ncccc6[nH]5)CC4)n3)cc2c1 ?
0.44

* * *

Experiment: Apparent permeability across apical to basolateral side in human Caco2 cells assessed as drug recovery at 2 uM and measured for 2 hrs by LC-MS/MS analysis
Conditions: Caco-2
recordedMetric: Papp A→B at 2 h, 2 µM (×10⁻⁶ cm/s)
// units = ×10⁻⁶ cm/s; emit number, no label

Consider the molecule c1ccc2oc(-c3csc(C4CCN(Cc5nc6ncccc6[nH]5)CC4)n3)cc2c1 and give its measured Papp A→B at 2 h, 2 µM.
9.2

* * *

Assay: Clearance in male Wistar rat blood at 0.4 mg/kg, iv by LC-MS/MS analysis
recordedMetric: clearance (mL/min/kg)
Write the value in mL/min/kg as a bare number.

Need clearance, item c1ccc2oc(-c3csc(C4CCN(Cc5nc6cnccc6[nH]5)CC4)n3)cc2c1
20

***
Would you kindly share the measured clearance for c1ccc2oc(-c3csc(C4CCN(Cc5nc6ncccc6[nH]5)CC4)n3)cc2c1 ?
6.67

* * *

Experiment: Inhibition of dog electron transport chain complex 1 assessed as reduction in cellular ATP measured after 24 hrs by celltiter-glo assay
Details: Canis lupus familiaris
recordedMetric: IC50 (nM)
Report the value in nM with no unit label.

// IC50 lookup, key: c1ccc2oc(-c3csc(C4CCN(Cc5nc6cnccc6[nH]5)CC4)n3)cc2c1
37

Consider the record given below.
For the compound c1ccc2oc(-c3csc(C4CCN(Cc5nc6ncccc6[nH]5)CC4)n3)cc2c1 , what IC50 is on record?
47

* * *

Experiment: Lipophilicity, logD of compound
Conditions: octanol/water
Binarize logD at 3; below is fulfilled, at or above is not fulfilled.

Look over these answered cases.
Check if logD falls below 3 for Fc1cnc2nc(CN3CCC(c4nc(-c5cc6ccccc6o5)cs4)CC3)[nH]c2c1 .
not fulfilled

Field: below-cutoff. Rule: recorded logD strictly less than 3. Subject: N#Cc1ccc2nc(CN3CCC(c4nc(-c5cc6ccccc6o5)cs4)CC3)[nH]c2c1
not fulfilled

More entries:
A record lists Cn1c(CN2CCC(c3nc(-c4cc5ccccc5o4)cs3)CC2)nc2ccccc21 . Is its logD below 3?
not fulfilled

Given the entry CC(C)(C(=O)Nc1cccc(F)c1)N1CCC(c2nc(-c3cc4ccccc4o3)cs2)CC1 , would its reported logD be below 3?
not fulfilled

For this compound, is logD lower than 3? Fc1ccc2cc(-c3csc(C4CCN(Cc5nc6ccccc6[nH]5)CC4)n3)oc2c1
not fulfilled

I wonder whether c1ccc2oc(-c3csc(C4CCN(Cc5cn6cccnc6n5)CC4)n3)cc2c1 has logD below 3. Can you tell?
fulfilled

Is 3 strictly greater than the compound's reported logD? compound: c1ccc2oc(-c3csc(C4CCN(Cc5ncc[nH]5)CC4)n3)cc2c1
fulfilled

Hi there! Is logD for c1ccc2oc(-c3csc(C4CCN(c5nnc(-c6ccncc6)o5)CC4)n3)cc2c1 below 3, do you know?
not fulfilled

Does the reported logD of the following compound sit strictly below 3? c1ccc(-c2c[nH]c(CN3CCC(c4nc(-c5cc6ccccc6o5)cs4)CC3)n2)cc1
not fulfilled

In the record for CCn1c(CN2CCC(c3nc(-c4cc5ccccc5o4)cs3)CC2)nc2ccccc21 , is logD less than 3?
not fulfilled

Please state whether logD is below 3 for c1ccc2oc(-c3csc(C4CCN(Cc5cn6ccccc6n5)CC4)n3)cc2c1
fulfilled

Please let me know if c1ccc2oc(-c3csc(C4CCN(Cc5nc6ncncc6[nH]5)CC4)n3)cc2c1 shows logD below 3.
fulfilled

Lab note: confirm whether the reported logD for this compound is below 3, equality not counting. compound: c1ccc2oc(-c3csc(C4CCN(Cc5nc6ccccc6o5)CC4)n3)cc2c1
not fulfilled
